# test-system: human P2X7 (Homo sapiens (Human))
# assay-name: P2X7 antagonism in human PBMCs (IL-1β release after LPS + Bz-ATP, ELISA)
# Type: cell-based
# reported-conditions: human PBMCs, test compound 10 μM
endpoint: PBMC 10 μM (% control)
Field: numeric (% control). Do not append units.

compound: C[C@H]1Cc2c(nnn2-c2ncc(F)cn2)CN1C(=O)c1cccc(C(F)(F)F)c1
quantitative-readout: 3.2
--
compound: C[C@@H]1c2nnn(-c3ccn(C)n3)c2CCN1C(=O)c1cccc(C(F)(F)F)c1Cl (single isomer, unassigned)
quantitative-readout: 95.0
--
compound: CC1Cc2c(-c3ccnn3C)nn(C)c2CN1C(=O)c1cccc(C(F)(F)F)c1Cl (centres unmarked)
quantitative-readout: 5.8
--
compound: Cc1c(C(=O)N2Cc3nnn(-c4ccn[nH]4)c3C[C@@H]2C)cccc1C(F)(F)F (single isomer, unassigned)
quantitative-readout: 2.0

stdin: For the compound Cc1c(C(=O)N2CCc3c(nnn3-c3ccccn3)C2)ccc(F)c1F , what PBMC 10 μM (% control) is on record?
stdout: 3.8

stdin: I have this compound here, O=C(c1cccc(C(F)(F)F)c1Cl)N1CCc2c(nc(C(F)(F)F)n2-c2ccccc2)C1 , and I need its recorded PBMC 10 μM (% control).
stdout: −0.3

stdin: Any idea what its PBMC 10 μM (% control) is? The compound is Cc1cc(-n2nnc3c2CCN(C(=O)c2ccc(Cl)c(C(F)(F)F)c2)[C@@H]3C)ncc1F (single isomer, unassigned)
stdout: 108.2

stdin: Name the reported PBMC 10 μM (% control) value associated with the compound CC1c2ncn(-c3ccc(F)cn3)c2CCN1C(=O)c1ccc(F)c(Cl)c1Cl (centres unmarked)
stdout: −3.1

stdin: Record request: PBMC 10 μM (% control) value, item Cc1cc(C)nc(-n2nnc3c2CCN(C(=O)c2cccc(C(F)(F)F)c2Cl)C3C)c1 (centres unmarked)
stdout: −1.8

stdin: Look up PBMC 10 μM (% control): C[C@@H]1c2nnn(-c3cc(F)ccn3)c2CCN1C(=O)c1cccc(C(F)(F)F)c1Cl (single isomer, unassigned)
stdout: −9.6

stdin: What value of measured PBMC 10 μM (% control) is listed for Cc1cccc(-n2nnc3c2CCN(C(=O)c2cccc(Cl)c2Cl)[C@H]3C)n1 (single isomer, unassigned) ?
stdout: 6.5

stdin: Return reported PBMC 10 μM (% control); argument: C[C@@H]1Cc2c(nnn2-c2ccn[nH]2)CN1C(=O)c1cccc(C(F)(F)F)c1Cl (single isomer, unassigned)
stdout: 16.2

stdin: Name the reported PBMC 10 μM (% control) value associated with the compound C[C@@H]1c2nnn(-c3ccc(F)cc3)c2C[C@H](C)N1C(=O)c1cccc(C(F)(F)F)c1Cl
stdout: −4.1

###

# test-system: human P2X7 (Homo sapiens (Human), UniProt Q99572)
# Sequence (Q99572 whole entry): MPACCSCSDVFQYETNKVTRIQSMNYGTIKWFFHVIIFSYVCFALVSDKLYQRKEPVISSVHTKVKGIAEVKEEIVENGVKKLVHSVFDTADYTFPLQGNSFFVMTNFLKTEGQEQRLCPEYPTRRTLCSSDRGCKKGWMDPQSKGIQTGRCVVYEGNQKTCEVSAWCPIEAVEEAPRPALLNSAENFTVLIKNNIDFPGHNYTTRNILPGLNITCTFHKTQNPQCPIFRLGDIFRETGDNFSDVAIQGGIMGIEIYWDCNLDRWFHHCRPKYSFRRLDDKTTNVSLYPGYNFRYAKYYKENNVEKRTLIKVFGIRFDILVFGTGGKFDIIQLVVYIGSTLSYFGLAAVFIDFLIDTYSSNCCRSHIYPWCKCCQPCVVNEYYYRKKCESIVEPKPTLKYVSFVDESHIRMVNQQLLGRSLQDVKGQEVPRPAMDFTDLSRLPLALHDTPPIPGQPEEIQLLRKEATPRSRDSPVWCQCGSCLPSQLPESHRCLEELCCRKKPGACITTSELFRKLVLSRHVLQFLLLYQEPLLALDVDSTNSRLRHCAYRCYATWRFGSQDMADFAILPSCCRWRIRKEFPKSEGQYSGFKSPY
# assay-name: P2X7 antagonism in human PBMCs (IL-1β release after LPS + Bz-ATP, ELISA)
# Type: cell-based
# reported-conditions: human PBMCs, test compound 10 μM
Each item that follows carries a reported PBMC 10 μM (% control).
Write the quantity with the unit trailing the number.

stdin: Reported PBMC 10 μM (% control) for human P2X7 (Homo sapiens (Human), UniProt Q99572), given C[C@@H]1Cc2c(nnn2-c2ccn[nH]2)[C@H](C)N1C(=O)c1cccc(C(F)(F)F)c1Cl [Example 309] ?
stdout: 1.4 % control

stdin: Test system human P2X7 (Homo sapiens (Human), UniProt Q99572); read-out PBMC 10 μM (% control); what value for CCOc1cccnc1-n1nnc2c1CCN(C(=O)c1cccc(C(F)(F)F)c1Cl)[C@H]2C (single isomer, unassigned) [Example 317] ?
stdout: 4.8 % control

stdin: Notebook: pull reported PBMC 10 μM (% control) for human P2X7 (Homo sapiens (Human), UniProt Q99572), entry C[C@H]1c2nnn(-c3ncc(F)cn3)c2CCN1C(=O)c1cccc(C(F)(F)F)c1F (single isomer, unassigned) [Example 178]
stdout: −4.7 % control

stdin: Return PBMC 10 μM (% control) measured with human P2X7 (Homo sapiens (Human), UniProt Q99572) given this compound: Cc1cc(-n2nnc3c2CCN(C(=O)c2cccc(OC(F)(F)F)c2F)C3C)ncc1F (stereo not drawn) [Example 374]
stdout: 104.3 % control

stdin: Form entry - test system: human P2X7 (Homo sapiens (Human), UniProt Q99572); read-out: PBMC 10 μM (% control); compound: CC1CN(C(=O)c2cccc(Cl)c2Cl)Cc2nnn(-c3ccccc3)c21 (stereo not drawn) [Example 244]
stdout: −2.3 % control

stdin: For the record Cc1c(C(=O)N2Cc3nnn(-c4ccn[nH]4)c3C[C@H]2C)cccc1C(F)(F)F (single isomer, unassigned) [Example 346] , what value of PBMC 10 μM (% control) is listed for human P2X7 (Homo sapiens (Human), UniProt Q99572)?
stdout: −2.3 % control

stdin: API: value(readout= PBMC 10 μM (% control), system= human P2X7 (Homo sapiens (Human), UniProt Q99572), query= Cc1ccnc(-n2nnc3c2CCN(C(=O)c2cccc(OC(F)(F)F)c2)C3C)c1 (single isomer, unassigned) [Example 377] )
stdout: 8.1 % control

stdin: Under human P2X7 (Homo sapiens (Human), UniProt Q99572): PBMC 10 μM (% control) value of O=C(c1cccc(C(F)(F)F)c1Cl)N1CCc2c(nnn2-c2ncc(F)cn2)C1 [Example 64] ?
stdout: −9.2 % control

stdin: Test system human P2X7 (Homo sapiens (Human), UniProt Q99572); read-out PBMC 10 μM (% control); what value for C[C@@H]1Cc2c(nnn2-c2ncc(F)cn2)CN1C(=O)c1ccc(F)c(Cl)c1Cl (single isomer, unassigned) [Example 214] ?
stdout: 8.2 % control

###

# test-system: human P2X7 (Homo sapiens (Human), UniProt Q99572)
# assay-name: P2X7 antagonism in human PBMCs (IL-1β release after LPS + Bz-ATP, ELISA)
# Type: cell-based
# reported-conditions: human PBMCs, test compound 1 μM
endpoint: PBMC 1 μM (% control)
A number alone suffices; assume % control.

compound: O=C(c1cccc(C(F)(F)F)c1Cl)N1CCc2c(nnn2-c2ccccc2)C1
uom: % control
quantitative-readout: −0.1
//
compound: Cn1nc2c(c1-c1ccc(F)cc1)CCN(C(=O)c1cccc(C(F)(F)F)c1Cl)C2
uom: % control
quantitative-readout: 51.0
//
compound: O=C(c1cccc(Cl)c1Cl)N1CCc2c(ncn2-c2ccccc2)C1
uom: % control
quantitative-readout: 23.0
//
compound: C[C@H]1c2nnn(-c3cnccn3)c2CCN1C(=O)c1cccc(C(F)(F)F)c1Cl (single isomer, unassigned)
uom: % control
quantitative-readout: 5.2
//
compound: O=C(c1cccc(C(F)(F)F)c1Cl)N1CCc2c(-c3ccccn3)n[nH]c2C1
uom: % control
quantitative-readout: 9.0
//
compound: CCOC(=O)C1c2ncn(-c3ccccn3)c2CCN1C(=O)c1cccc(C(F)(F)F)c1Cl (centres unmarked)
uom: % control
quantitative-readout: 2.9

stdin: // fetch human P2X7 (Homo sapiens (Human), UniProt Q99572) PBMC 1 μM (% control) for CC1c2nnn(-c3cnccn3)c2CCN1C(=O)c1cccc(C(F)(F)F)c1Cl (centres unmarked)
stdout: 4.3

stdin: Short answer please: PBMC 1 μM (% control), human P2X7 (Homo sapiens (Human), UniProt Q99572), entry Cn1nc2c(c1-c1ccccn1)CCN(C(=O)c1cccc(C(F)(F)F)c1Cl)C2
stdout: 2.7

###

# test-system: rat P2X7 (Rattus norvegicus (Rat), UniProt Q64663)
# Sequence (Q64663 whole entry): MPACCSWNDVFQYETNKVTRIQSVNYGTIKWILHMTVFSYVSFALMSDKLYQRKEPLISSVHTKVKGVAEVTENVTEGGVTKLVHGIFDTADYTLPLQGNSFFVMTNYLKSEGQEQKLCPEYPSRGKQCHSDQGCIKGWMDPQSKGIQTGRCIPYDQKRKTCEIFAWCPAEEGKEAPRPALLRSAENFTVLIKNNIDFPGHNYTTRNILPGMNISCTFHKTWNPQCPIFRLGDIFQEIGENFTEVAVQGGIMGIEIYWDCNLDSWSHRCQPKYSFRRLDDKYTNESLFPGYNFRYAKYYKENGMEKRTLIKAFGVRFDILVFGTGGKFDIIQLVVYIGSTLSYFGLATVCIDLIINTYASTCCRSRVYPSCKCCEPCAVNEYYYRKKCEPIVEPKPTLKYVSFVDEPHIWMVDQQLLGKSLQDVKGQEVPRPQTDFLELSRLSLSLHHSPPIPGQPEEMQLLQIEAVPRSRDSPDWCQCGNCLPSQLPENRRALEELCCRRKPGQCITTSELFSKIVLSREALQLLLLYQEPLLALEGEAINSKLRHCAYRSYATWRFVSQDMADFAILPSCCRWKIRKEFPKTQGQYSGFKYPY
# assay-name: Ca2+ flux (FLIPR) in 1321N1 cells expressing recombinant rat P2X7;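 further: Calcium-4 dye fluorescence change read 180 s after agonist addition, with cells preincubated 30 min with compound and dye in 96-well plates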
# Assay type: cell-based
# reported-conditions: 1321N1 cells, recombinant rat P2X7, 250 μM BzATP
endpoint: pIC50
Scale for pIC50: -log10 of concentration given in mol/L; no unit attached.

compound: CCOC(=O)C1c2ncn(-c3cnccn3)c2CCN1C(=O)c1cccc(Cl)c1Cl (centres unmarked) [Example 29]
pIC50: 5.60
--
compound: Cc1cc(-n2nnc3c2CCN(C(=O)c2ccnc(C(F)(F)F)c2F)[C@@H]3C)ncc1F (single isomer, unassigned) [Example 368]
pIC50: 6.63
--
compound: CC(C)C1c2ncn(-c3cnccn3)c2CCN1C(=O)c1cccc(C(F)(F)F)c1Cl (centres unmarked) [Example 16]
pIC50: 6.59
--
compound: Cc1cc(-n2nnc3c2CCN(C(=O)c2ccnc(C(F)(F)F)c2Cl)C3C)ncc1F (centres unmarked) [Example 370]
pIC50: 6.59
--
compound: Cc1ccnc(-n2nnc3c2CCN(C(=O)c2ccnc(C(F)(F)F)c2F)[C@H]3C)c1 (single isomer, unassigned) [Example 357]
pIC50: 4.79
--
compound: Cc1ccnc(-n2nnc3c2CCN(C(=O)c2cccc(OC(F)(F)F)c2F)C3C)c1 (centres unmarked) [Example 373]
pIC50: 4.99

stdin: # query: pIC50 of entry O=C(C1c2ncn(-c3ccccn3)c2CCN1C(=O)c1cccc(C(F)(F)F)c1Cl)N1CCC1 (centres unmarked) [Example 35]
stdout: 6.63
